system: HCV genotype 1b (Con1) replicon in HUH-7 cells; experiment: HCV replicon luciferase reporter assay, genotype 1b; format: cell-based; conditions: Hepatitis C virus, Huh-7, 72 h, HCV genotype 1b replicon luciferase, 3 days incubation, read-out: LE_1b (EC50, range)
MEASURE: EC50

Give EC50 for this entry on HCV genotype 1b (Con1) replicon in HUH-7 cells: COc1ccc2c(O[C@@H]3C[C@H]4C(=O)N[C@]5(C(=O)NS(=O)(=O)C6CC6)C[C@H]5/C=C\CC[C@@H](C)C[C@@H](C)[C@H](NC(=O)OC5C[C@@H]6C[C@@H]6C5)C(=O)N4C3)nc(-c3ccc(N4CCOCC4)cc3)cc2c1 (stereo partly drawn) < 5.46 nM

Enter measured EC50, system HCV genotype 1b (Con1) replicon in HUH-7 cells, for the compound shown: CC[C@@H]1C[C@H](C)CC/C=C\[C@@H]2C[C@@]2(C(=O)NS(=O)(=O)C2(C)CC2)NC(=O)[C@@H]2C[C@@H](Oc3ncc(OC)c4ccc(F)cc34)CN2C(=O)[C@H]1NC(=O)N1CC(C)OC(C)C1 (stereo partly drawn) 1.01 to 5 nM

Give reported EC50 for CC[C@@H]1C[C@H](C)CC/C=C\[C@@H]2C[C@@]2(C(=O)NS(=O)(=O)C2CC2)NC(=O)[C@@H]2C[C@@H](Oc3nccc4c5c(ccc34)OCCO5)CN2C(=O)[C@H]1NC(=O)OC(C)(C)C (HCV genotype 1b (Con1) replicon in HUH-7 cells) < 5.46 nM

---

test system: HCV genotype 1b (Con1) replicon in HUH-7 cells; assay: HCV replicon luciferase reporter assay, genotype 1b; assay type: cell-based; settings: Hepatitis C virus, Huh-7, 72 h, HCV genotype 1b replicon luciferase, 3 days incubation, read-out: LE_1b (EC50, range)
pEC50: −log10 of the molar value.
MEASURE: pEC50

Find the measured pEC50 of COc1ccc2c(O[C@@H]3C[C@H]4C(=O)N[C@]5(C(=O)NS(=O)(=O)C6(C)CC6)C[C@H]5/C=C\CC[C@@H](C)C[C@@H](C)[C@H](NC(=O)OC(C)(C)C)C(=O)N4C3)nc(-c3ccc(C(C)(C)C)cc3)cc2c1 and report it. 6.99 to 8.32

Name the recorded pEC50 of the compound listed here: COc1ccc2c(O[C@@H]3C[C@H]4C(=O)N[C@]5(C(=O)NS(=O)(=O)C6(C)CC6)C[C@H]5/C=C\CC[C@@H](C)C[C@@H](C)[C@H](NC(=O)OC(C)(C)C(C)(F)F)C(=O)N4C3)nc(-c3ccc4c(c3)OCCO4)cc2c1 > 8.26

# return recorded pEC50 for entry [2H]C([2H])([2H])C(C)(OC(=O)N[C@@H]1C(=O)N2C[C@H](Oc3nnc(OC)c4ccccc34)C[C@H]2C(=O)N[C@]2(C(=O)NS(=O)(=O)C3(C)CC3)C[C@H]2/C=C\CC[C@H](C)C[C@H]1CC)C([2H])([2H])[2H] > 8.26

Note pEC50 for the compound shown: COc1ccc(-c2nc(O[C@@H]3C[C@H]4C(=O)N[C@]5(C(=O)NS(=O)(=O)C6CC6)C[C@H]5/C=C\CC[C@@H](C)C[C@@H](C)[C@H](NC(=O)OC(C)(C)C)C(=O)N4C3)c3ccc(OC)cc3n2)cc1 > 8.26

Look up and report measured pEC50 for this entry: COc1cc2ccccc2c(O[C@@H]2C[C@H]3C(=O)N[C@]4(C(=O)NS(=O)(=O)C5CC5)C[C@H]4/C=C\CC[C@@H](C)C[C@@H](C)[C@H](NC(=O)OC(C)(C)C(C)(F)F)C(=O)N3C2)n1 > 8.26

---

tested on: HCV genotype 1a (H77 strain) replicon in HUH-7 cells; experiment: HCV replicon luciferase reporter assay, genotype 1a; assay type: cell-based; details: Hepatitis C virus, Huh-7, 72 h, HCV genotype 1a replicon luciferase, 3 days incubation, read-out: LE_1a (EC50)
MEASURE: pEC50
# reply with the number alone; pEC50 is -log10 of concentration in mol/L

Consider the molecule C[C@@H]1CC/C=C\[C@@H]2C[C@@]2(C(=O)NS(=O)(=O)C2CC2)NC(=O)[C@@H]2C[C@@H](Oc3nccc4c5c(ccc34)N(C)CCO5)CN2C(=O)[C@@H](NC(=O)c2ccc(N(C)C)cc2)[C@H](C)C1 [Compound 5290] . State its measured pEC50. 8.90

Dear colleague, please send me the reported pEC50 for COc1nnc(O[C@@H]2C[C@H]3C(=O)N[C@]4(C(=O)NS(=O)(=O)C5CC5)C[C@H]4/C=C\CC[C@H](C)C[C@@H](C)[C@H](NC(=O)OC(C)(C)C)C(=O)N3C2)c2ccccc12 [Compound 5003] when you can. 8.26

Please list pEC50 recorded for the molecule COc1cc2ccccc2c(O[C@@H]2C[C@H]3C(=O)N[C@]4(C(=O)NS(=O)(=O)C5(C)CC5)C[C@H]4/C=C\CC[C@@H](C)C[C@@H](C)[C@H](NC(=O)OC(C)(C)C)C(=O)N3C2)n1 [Compound 6009] 8.95

---

test system: HCV genotype 1b (Con1) replicon in HUH-7 cells; test: HCV replicon luciferase reporter assay, genotype 1b; assay type: cell-based; settings: Hepatitis C virus, Huh-7, 72 h, HCV genotype 1b replicon luciferase, 3 days incubation, read-out: LE_1b (EC50, range)
MEASURE: EC50

Provide EC50 value for the following compound: C[C@@H]1CC/C=C\[C@@H]2C[C@@]2(C(=O)NS(=O)(=O)C2(C)CC2)NC(=O)[C@@H]2C[C@@H](Oc3nccc4c5c(ccc34)N(C)CCO5)CN2C(=O)[C@@H](NC(=O)OC(C)(C)C)[C@H](C)C1 [Compound 5294] < 5.46 nM

Given the compound CC[C@@H]1C[C@H](C)CC/C=C\[C@@H]2C[C@@]2(C(=O)NS(=O)(=O)C2CC2)NC(=O)[C@@H]2C[C@@H](Oc3nccc4c5c(ccc34)N(C)CCO5)CN2C(=O)[C@H]1NC(=O)O[C@@H]1C[C@@H]2C[C@@H]2C1 [Compound 5314] , write its reported EC50. < 5.46 nM

Specify measured EC50 for CCn1nc(O[C@@H]2C[C@H]3C(=O)N[C@]4(C(=O)NS(=O)(=O)C5(C)CC5)C[C@H]4/C=C\CC[C@@H](C)C[C@@H](C)[C@H](NC(=O)OC(C)(C)C(F)(F)F)C(=O)N3C2)c2ccccc2c1=O [Compound 5053] . < 5.46 nM

Return reported EC50. Input compound: [2H]C([2H])([2H])C(OC(=O)N[C@@H]1C(=O)N2C[C@H](Oc3nc(-c4ccc(OC(C)C)nc4)cc4cc(OC)ccc34)C[C@H]2C(=O)N[C@]2(C(=O)NS(=O)(=O)C3CC3)C[C@H]2/C=C\CC[C@@H](C)C[C@H]1C)(C([2H])([2H])[2H])C(F)(F)F [Compound 5217] < 5.46 nM

Identify measured EC50 corresponding to CC[C@@H]1C[C@H](C)CC/C=C\[C@@H]2C[C@@]2(C(=O)NS(=O)(=O)C2CC2)NC(=O)[C@@H]2C[C@@H](Oc3nccc4c5c(ccc34)N(C)CCO5)CN2C(=O)[C@H]1NC(=O)C(=O)N(C)C [Compound 5318] < 5.46 nM

Find the measured EC50 of COc1nnc(O[C@@H]2C[C@H]3C(=O)N[C@]4(C(=O)NS(=O)(=O)C5(C)CC5)C[C@H]4/C=C\CC[C@@H](C)C[C@@H](C)[C@H](NC(=O)OC(C)(C)C)C(=O)N3C2)c2ccccc12 [Compound 5016] and report it. < 5.46 nM

Please give measured EC50 of the following entry: C[C@H]1CC/C=C\[C@@H]2C[C@@]2(C(=O)NS(=O)(=O)C2(C)CC2)NC(=O)[C@@H]2C[C@@H](Oc3nccc4c5c(ccc34)N(C)CCO5)CN2C(=O)[C@@H](NC(=O)O[C@@H]2C[C@@H]3C[C@@H]3C2)[C@H](C)C1 [Compound 5299] < 5.46 nM

Return EC50 (reported value) for this compound: [2H]C([2H])([2H])Oc1cnc(O[C@@H]2C[C@H]3C(=O)N[C@]4(C(=O)NS(=O)(=O)C5(C)CC5)C[C@H]4/C=C\CC[C@@H](C)C[C@@H](C)[C@H](NC(=O)NC(C)(C)C)C(=O)N3C2)c2ccccc12 [Compound 5107] < 5.46 nM

# return recorded EC50 for input CCOc1nnc(O[C@@H]2C[C@H]3C(=O)N[C@]4(C(=O)NS(=O)(=O)C5CC5)C[C@H]4/C=C\CC[C@H](C)C[C@@H](CC)[C@H](NC(=O)OC(C)(C)C(F)(F)F)C(=O)N3C2)c2ccccc12 [Compound 5044] 4.82 to 103 nM

Item CC[C@@H]1C[C@H](C)CC/C=C\[C@@H]2C[C@@]2(C(=O)NS(=O)(=O)C2(C)CC2)NC(=O)[C@@H]2C[C@@H](Oc3nc4c(c5cc(OC)ccc35)CCCO4)CN2C(=O)[C@H]1NC(=O)OC(C)(C)C(F)F [Compound 6092] : provide EC50 1.01 to 5 nM

Write down EC50 measured for item CCOc1cnc(O[C@@H]2C[C@H]3C(=O)N[C@]4(C(=O)NS(=O)(=O)C5(C)CC5)C[C@H]4/C=C\CC[C@@H](C)C[C@@H](C)[C@H](NC(=O)Oc4ccccc4F)C(=O)N3C2)c2ccccc12 [Compound 4139] 4.82 to 103 nM

Identify measured EC50 corresponding to COc1ccc2c(O[C@@H]3C[C@H]4C(=O)N[C@]5(C(=O)NS(=O)(=O)C6(C)CC6)C[C@H]5/C=C\CC[C@H](C)C[C@@H](C)[C@H](NC(=O)OC(C)(C)C(F)(F)F)C(=O)N4C3)nc(-c3ccc(N4CCOCC4)cc3)cc2c1 [Compound 5198] < 5.46 nM

In one line, give reported EC50 of the entry [2H]C([2H])([2H])C(C)(OC(=O)N[C@@H]1C(=O)N2C[C@H](Oc3nccc4c5c(ccc34)N(C)CCO5)C[C@H]2C(=O)N[C@]2(C(=O)NS(=O)(=O)C3CC3)C[C@H]2/C=C\CC[C@@H](C)C[C@H]1C)C([2H])([2H])[2H] [Compound 5286] . < 5.46 nM
